Data origin, for the record: PubChem BioAssay AID488775

System: GAL4DBD-VP16 transactivation domain fusion (Human herpesvirus 1 VP16)
Test: suppression of VP16-driven UAS luciferase – cell-based, luminescence, HEK293T, powder samples, counter-screen for LRH1 inverse agonist project, confirmation (AID 488775)
Conditions: HEK293T GAL4-VP16 UAS-luciferase reporter, 18-24 h; at 5 µM; active compounds read high
Value type: inhibition (%)

# example entries with known answers
Input smiles	Value type	Unit annotation	Numeric value
O=c1cc(N2CCN(c3cccc(C(F)(F)F)c3)CC2)[nH]c(=O)n1Cc1ccccc1	inhibition	%	6
O=c1cc(N2CCN(c3cccc(Cl)c3Cl)CC2)[nH]c(=O)n1C1CCCCC1	inhibition	%	-5
N#CCn1c(N2CCN(c3cccc(C(F)(F)F)c3)CC2)cc(=O)n(C2CCCCC2)c1=O	inhibition	%	2
CCN1CCN(c2cc(=O)n(C3CCCCC3)c(=O)[nH]2)CC1	inhibition	%	0
O=c1cc(N2CCN(c3ccccc3)CC2)[nH]c(=O)n1Cc1ccc(F)cc1	inhibition	%	-5
C=CCn1c(N2CCN(c3cccc(C(F)(F)F)c3)CC2)cc(=O)n(C2CCCCC2)c1=O	inhibition	%	20

(1) O=c1cc(N2CCN(c3cc(C(F)(F)F)ccn3)CC2)[nH]c(=O)n1C1CCCCC1
(2) O=c1cc(N2CCC(Cc3ccccc3)CC2)[nH]c(=O)n1C1CCCCC1
(3) CCn1c(=O)cc(N2CCN(c3ccccc3)CC2)[nH]c1=O
(4) O=c1cc(N2CCN(c3nc(-c4ccccc4)ns3)CC2)[nH]c(=O)n1C1CCCCC1
(5) COc1ccc(N2CCN(c3cc(=O)n(C4CCCCC4)c(=O)[nH]3)CC2)cc1
### Prompt Number of compounds to sort: 5. Sort criterion: inhibition, ascending. When ranking, write the labels in the order the request describes.
### Response 4, 1, 3, 5, 2

(I) COC(=O)C1CCN(c2cc(=O)n(C3CCCCC3)c(=O)[nH]2)CC1
(II) O=c1cc(N2CCN(c3nccc4occc34)CC2)[nH]c(=O)n1C1CCCCC1
### Prompt When their inhibition values are compared, which is larger, I or II ? Which one? Tell me its label.
### Response II
(II: -4%, I: -12%)

(A) O=c1cc(N2CCN(c3cccc(C(F)(F)F)c3)CC2)[nH]c(=O)n1-c1ccccc1
(B) CCn1c(=O)cc(N2CCN(C(=O)c3ccco3)CC2)[nH]c1=O
(C) Cn1c(=O)cc(N2CCN(c3ccc(F)cc3)CC2)[nH]c1=O
### Prompt Number of compounds to sort: 3. Sort criterion: inhibition, ascending. When ranking, write the labels in the order the request describes.
### Response C, A, B

(1) C=CCn1c(=O)cc(N2CCN(c3cccc(C(F)(F)F)c3)CC2)[nH]c1=O
(2) Cc1cc(C)cc(N2CCN(c3cc(=O)n(C4CCCCC4)c(=O)[nH]3)CC2)c1
(3) CC(C)Cn1c(=O)cc(N2CCN(c3cccc(C(F)(F)F)c3)CC2)[nH]c1=O
### Prompt Number of compounds to sort: 3. Sort criterion: inhibition, ascending. When ranking, write the labels in the order the request describes.
### Response 2, 1, 3
(2: -6%, 1: 1%, 3: 8%)

---

Test system: GAL4DBD-VP16 transactivation domain fusion (Human herpesvirus 1 VP16)
Assay: suppression of VP16-driven UAS luciferase – cell-based, luminescence, HEK293T, powder samples, counter-screen for LRH1 inverse agonist project, confirmation (AID 488775)
Conditions: HEK293T GAL4-VP16 UAS-luciferase reporter, 18-24 h; at 5 µM; active compounds read high
Value type: inhibition (%)

# example entries with known answers
Input smiles	Test target	Value type	Numeric value
O=c1cc(N2CCN(c3cc(Cl)cc(Cl)c3)CC2)[nH]c(=O)n1C1CCCCC1	GAL4DBD-VP16 transactivation domain fusion (Human herpesvirus 1 VP16)	inhibition	1
O=c1cc(N2CCN(c3cccc(C(F)(F)F)c3)CC2)n(Cc2ccccc2)c(=O)n1C1CCCCC1	GAL4DBD-VP16 transactivation domain fusion (Human herpesvirus 1 VP16)	inhibition	-1
O=c1cc(N2CCN(c3ccccc3Cl)CC2)[nH]c(=O)n1C1CCCCC1	GAL4DBD-VP16 transactivation domain fusion (Human herpesvirus 1 VP16)	inhibition	1
O=c1cc(N2CCN(Cc3ccc4c(c3)OCO4)CC2)[nH]c(=O)n1C1CCCCC1	GAL4DBD-VP16 transactivation domain fusion (Human herpesvirus 1 VP16)	inhibition	-5
O=c1cc(N2CCN(C3CCCCC3)CC2)[nH]c(=O)n1C1CCCCC1	GAL4DBD-VP16 transactivation domain fusion (Human herpesvirus 1 VP16)	inhibition	0
O=c1cc(N2CCN(c3ccc(F)cc3F)CC2)[nH]c(=O)n1C1CCCCC1	GAL4DBD-VP16 transactivation domain fusion (Human herpesvirus 1 VP16)	inhibition	26
O=c1cc(N2CCN(c3ccnc4cc(Cl)ccc34)CC2)[nH]c(=O)n1C1CCCCC1	GAL4DBD-VP16 transactivation domain fusion (Human herpesvirus 1 VP16)	inhibition	7

(A) O=c1cc(N2CCCC2)[nH]c(=O)n1C1CCCCC1
(B) O=c1cc(N2CCN(c3ccccc3)CC2)[nH]c(=O)n1C1CCCCC1
(C) CC1CCN(c2cc(=O)n(C3CCCCC3)c(=O)[nH]2)CC1
### Prompt Number of compounds to sort: 3. Sort criterion: inhibition, ascending. When ranking, write the labels in the order the request describes.
### Response B, A, C

---

System: GAL4DBD-VP16 transactivation domain fusion (Human herpesvirus 1 VP16)
Experiment: suppression of VP16-driven UAS luciferase – cell-based, luminescence, HEK293T, powder samples, counter-screen for LRH1 inverse agonist project, confirmation (AID 488775)
Details: HEK293T GAL4-VP16 UAS-luciferase reporter, 18-24 h; at 5 µM; active compounds read high
Value type: inhibition (%)

# example entries with known answers
Input smiles	Unit annotation	Numeric value
O=c1cc(N2CCN(C(c3ccccc3)c3ccccc3)CC2)[nH]c(=O)n1C1CCCCC1	%	11
O=c1cc(N2CCc3ccccc32)[nH]c(=O)n1C1CCCCC1	%	-11
CCn1c(=O)cc(N2CCN(c3ccc(F)cc3)CC2)[nH]c1=O	%	-7
O=C(c1ccco1)N1CCN(c2cc(=O)n(C3CCCCC3)c(=O)[nH]2)CC1	%	17
CC1CCN(c2cc(=O)n(Cc3ccc(F)cc3)c(=O)[nH]2)CC1	%	-7
O=c1cc(N2CCN(c3cccc(C(F)(F)F)n3)CC2)[nH]c(=O)n1C1CCCCC1	%	3

(1) CCn1c(=O)cc(N2CCN(c3cccc(Cl)c3)CC2)[nH]c1=O
(2) Cc1ccc(C)n1CCN1CCN(c2cc(=O)n(C3CCCCC3)c(=O)[nH]2)CC1
(3) O=c1cc(N2CCN(c3cccc(C(F)(F)F)c3)CC2)[nH]c(=O)n1C1CCCCC1
(4) CCn1c(=O)cc(N2CCN(c3cccc(C(F)(F)F)c3)CC2)[nH]c1=O
### Prompt Order the records so the highest inhibition appears first and the lowest last. When ranking, write the labels in the order the request describes.
### Response 2, 1, 4, 3
(2: 17%, 1: 5%, 4: 1%, 3: -6%)

(P) Cn1c(=O)cc(N2CCN(c3cccc(Cl)c3)CC2)[nH]c1=O
(Q) O=c1cc(N2CCN(CCN3CCOCC3)CC2)[nH]c(=O)n1C1CCCCC1
### Prompt When their inhibition values are compared, which is larger, P or Q ? Which one? Tell me its label.
### Response Q

(I) O=c1cc(N2CCCCC2)[nH]c(=O)n1C1CCCCC1
(II) O=C(c1ccccc1)N1CCN(c2cc(=O)n(C3CCCCC3)c(=O)[nH]2)CC1
### Prompt Of I and II , whose reported inhibition is numerically smaller? Which one? Tell me its label.
### Response I
(I: 0%, II: 8%)

(P) O=c1cc(N2CCN(c3cccc(Cl)c3)CC2)[nH]c(=O)n1C1CCCCC1
(Q) O=c1cc(N2CCN(c3ccc(F)cc3)CC2)[nH]c(=O)n1C1CCCCC1
(R) CCOC(=O)N1CCN(c2cc(=O)n(C3CCCCC3)c(=O)[nH]2)CC1
### Prompt Number of compounds to sort: 3. Sort criterion: inhibition, ascending. When ranking, write the labels in the order the request describes.
### Response Q, R, P
(Q: -9%, R: -6%, P: 1%)

---

Tested on: GAL4DBD-VP16 transactivation domain fusion (Human herpesvirus 1 VP16)
Assay: suppression of VP16-driven UAS luciferase – cell-based, luminescence, HEK293T, powder samples, counter-screen for LRH1 inverse agonist project, confirmation (AID 488775)
Conditions: HEK293T GAL4-VP16 UAS-luciferase reporter, 18-24 h; at 5 µM; active compounds read high
Value type: inhibition (%)

# example entries with known answers
Input smiles	inhibition / %
O=c1cc(N2CCN(c3ncccc3C(F)(F)F)CC2)[nH]c(=O)n1C1CCCCC1	13
O=c1cc(N2CCN(c3ncccc3Cl)CC2)[nH]c(=O)n1C1CCCCC1	16

(P) CCn1c(=O)cc(N2CCN(Cc3ccccc3)CC2)[nH]c1=O
(Q) O=c1cc(N2CCN(c3ccccc3C(F)(F)F)CC2)[nH]c(=O)n1C1CCCCC1
(R) C=CCN1CCN(c2cc(=O)n(C3CCCCC3)c(=O)[nH]2)CC1
### Prompt Number of molecules to sort: 3. Sort criterion: inhibition, ascending. When ranking, write the labels in the order the request describes.
### Response R, P, Q
